assay: Selectivity index, ratio of ED50 for human HaCaT cells to MIC for Pseudomonas aeruginosa PAO1 ATCC 15692; format: toxicity; details: read-out: Selectivity Index
Square brackets hold non-standard residues; d marks the D form. Peptide text beside a SMILES is read from it. Gly(N-(CH2)6NH2) = NCCCCCCNCC(=O)O; Nspe = C[C@H](NCC(=O)O)c1ccccc1; NhArg = N=C(N)NCCCCNCC(=O)O; Nphe = O=C(O)CNCc1ccccc1; Nlys = NCCCCNCC(=O)O
Field: selectivity ratio. Provide a value for each of the compounds that follow.
Could you respond with only the numeric value?

# input So what's the measured selectivity ratio for this one? NCCCCNCC(=O)N(CC(=O)N(CC(=O)N(CCCCN)CC(=O)N(CC(=O)N(CC(=O)N(CCCCN)CC(=O)N(CC(=O)N(CC(=O)N(CCCCN)CC(=O)N(CC(=O)N(CC(N)=O)Cc1cccc(F)c1)Cc1cccc(F)c1)Cc1cccc(F)c1)Cc1cccc(F)c1)Cc1cccc(F)c1)Cc1cccc(F)c1)Cc1cccc(F)c1)Cc1cccc(F)c1
# output 1

# input Would you mind telling me what selectivity ratio value was observed for N=C(N)NCCCCNCC(=O)N(CC(=O)N(CC(=O)N(CCCCNC(=N)N)CC(=O)N(CC(=O)N(CC(=O)N(CCCCNC(=N)N)CC(=O)N(CC(=O)N(CC(=O)N(CCCCNC(=N)N)CC(=O)N(CC(=O)N(CC(N)=O)Cc1cccc(F)c1)Cc1cccc(F)c1)Cc1cccc(F)c1)Cc1cccc(F)c1)Cc1cccc(F)c1)Cc1cccc(F)c1)Cc1cccc(F)c1)Cc1cccc(F)c1 ?
# output 2

# input compound: NCCCCCCNCC(=O)N(CC(=O)N(CC(=O)N(CCCCCCN)CC(=O)N(CC(=O)N(CC(N)=O)Cc1ccccc1)Cc1ccccc1)Cc1ccccc1)Cc1ccccc1 (H-[Gly(N-(CH2)6NH2)][Nphe][Nphe][Gly(N-(CH2)6NH2)][Nphe][Nphe]-NH2) ; wanted: its selectivity ratio
# output 1

# input For CC(c1ccccc1)N(CC(=O)N(CCCCN)CC(=O)N(CC(=O)N(CC(=O)N(CCCCN)CC(=O)N(CC(=O)N(CC(N)=O)[C@@H](C)c1ccccc1)[C@@H](C)c1ccccc1)Cc1ccc(F)cc1)Cc1ccc(F)cc1)C(=O)CN(C(=O)CN(CCCCN)C(=O)CN(Cc1ccc(F)cc1)C(=O)CN(Cc1ccc(F)cc1)C(=O)CNCCCCN)[C@@H](C)c1ccccc1 (single isomer, unassigned) , what is its reported selectivity ratio?
# output 2

# input Consider the compound C[C@@H](c1ccccc1)N(CC(N)=O)C(=O)CN(C(=O)CN(CCCCN)C(=O)CN(C(=O)CN(C(=O)CNCCCCN)[C@@H](C)c1ccccc1)[C@@H](C)c1ccccc1)[C@@H](C)c1ccccc1 (H-[Nlys][Nspe][Nspe][Nlys][Nspe][Nspe]-NH2) and give its measured selectivity ratio.
# output 1

# input Need selectivity ratio of N=C(N)NCCCCNCC(=O)N(CC(=O)N(CC(=O)N(CCCCNC(=N)N)CC(=O)N(CC(=O)N(CC(=O)N(CCCCNC(=N)N)CC(=O)N(CC(=O)N(CC(=O)N(CCCCNC(=N)N)CC(=O)N(CC(=O)N(CC(N)=O)Cc1ccccc1)Cc1ccccc1)Cc1ccccc1)Cc1ccccc1)Cc1ccccc1)Cc1ccccc1)Cc1ccccc1)Cc1ccccc1 (H-[NhArg][Nphe][Nphe][NhArg][Nphe][Nphe][NhArg][Nphe][Nphe][NhArg][Nphe][Nphe]-NH2) , thanks.
# output 4

Numbers sourced from ChEMBL document CHEMBL4261490.
